# Experiment: Stability of the analytes in beagle dog plasma (bench top, refrigerator, freeze–thaw, autosampler, short and long term storage)
# Format: physicochemical
# Test Settings: freeze–thaw after 3rd cycle at −80°C; dog plasma; LQC; n = 5
Readout Label: Mean stability sample ±SD (ng/mL)

Past entries and their recorded results:
Compound	Mean stability sample ±SD, ng/mL
CN1CCCN=C1/C=C/c1cccs1	11.06
COC(=O)Nc1nc2ccc(Sc3ccccc3)cc2[nH]1	29.65

[A] O=C(C1CCCCC1)N1CC(=O)N2CCc3ccccc3C2C1 (stereo not shown)
[B] COC(=O)Nc1nc2ccc([S+]([O-])c3ccccc3)cc2[nH]1 (stereo not shown)
Hello, I am sorting some records. Could you say if A or B has the smaller Mean stability sample ±SD value? Your answer should be the label of the entry you select.
B

The values you see were collected from paper PMC11864945.
